Would you kindly list T70/T50 for each of these molecules?
- experimental.protocol: Ketose 3-epimerase activity ratio (T70/T50) at reaction temperature of 70° C. to 50° C.
- Assay type: biochemical
- assay.conditions: crude recombinant enzyme; ratio of activity at 70° C. to activity at 50° C., 10 min reaction
Numbers only.

# count of solved cases: 6
Ketose 3-epimerase mutant 31: amino acid-substituted mutant of SEQ ID NO: 1 (protein, Arthrobacter histidinolovorans) MKIGCHGLVWTGRFDAEGIRYSVQKTKEAGFDLIEFPLMDPFSFDVATAKSALAEHGLTASASLGLSEATDVSSEDPAIVKAGEELLNRALDVLAELGATDFCGVIYSAMKKYMEPATEQGLSNSKAAVGRVVDRAAGLGINVSLEVVNRYETNVLNTGRQALSYLSDVKRPNLGVHLDTYHMNIEESDMFSPVLDTADALKYVHIGESHRGYLGTGSVDFDNFFKALGRIGYDGPVVFESFSSAVVAPDLSRMLGIWRNLWADNEELGAHANAFIRDKLTAIKTIELH = 1.54
Ketose 3-epimerase mutant 8: amino acid-substituted mutant of SEQ ID NO: 1 (protein, Arthrobacter histidinolovorans) MKIGCHGLVWTGRFDAEGIRYSVQKTKEAGFDLIEFPLMDPFSFDVATAKSALAEHGLTASASLGLSEATDVSSEDPAIVKAGEELLNRALDVLAELGATDFCGVIYSAMKKYMEPATEQGLSNSKAAIGRVVDRAAGLGINVSLEVVNRYETNVLNTGRQALSYLSDVKRPNLGVHLDTYHMNIEESDMFSPVLDTAEVLKYVHIGESHRGYLGTGNVDFDNFFKALGRIGYDGPVVFESFSSAVVAPDLSRMLGIWRNLWADNEELGAHANAFIRDKLTAIKTIELH = 2.03
Ketose 3-epimerase mutant 19: amino acid-substituted mutant of SEQ ID NO: 1 (protein, Arthrobacter histidinolovorans) MKIGCHGLVWTGRFDAEGIRYSVQKTKEAGFDLIEFPLMDPFSFDVATAKSALAEHGLSVSASLGLSEATDVSSEDPAIVKAGEELLNRALDVLAELGATDFCGVIYSAMKKYMEPATEQGLSNSKAAIGRVVDRAAGLGINVSLEVVNRYETNVLNTGRQALSYLSDVKRPNLGVHLDTYHMNIEESDMFSPVLDTAEVLKYVHIGESHRGYLGTGNVDFDNFFKALGRIGYDGPVVFESFSSAVVAPDLSRMLGIWRNLWADNEELGAHANAFIRDKLTAIKTIELH = 1.85
Ketose 3-epimerase mutant 15: amino acid-substituted mutant of SEQ ID NO: 1 (protein, Arthrobacter histidinolovorans) MKIGCHGLVWTGRFDAEGIRYSVQKTKEAGFDLIEFPLMDPFSFDVATAKSALAEHGLSVSASLGLSEATDVSSEDPAIVKAGEELLNRALDVLAELGATEFCGVIYSAMKKYMEPATEQGLSNSKAAVGRVVDRAAGLGINVSLEVVNRYETNVLNTGRQALSYLSDVKRPNLGVHLDTYHMNIEESDMFSPVLDTAEVLKYVHIGESHRGYLGTGSVDFDNFFKALGRIGYDGPVVFESFSSAVVAPDLSRMLGIWRNLWADNEELGAHANAFIRDKLTAIKTIELH = 1.90
Ketose 3-epimerase mutant 37: amino acid-substituted mutant of SEQ ID NO: 1 (protein, Arthrobacter histidinolovorans) MKIGCHGLVWTGRFDAEGIRYSVQKTKEAGFDLIEFPLMDPFSFDVATAKSALAEHGLTASASLGLSEATDVSSEDPAIVKAGEELLNRALDVLAELGATDFCGVIYSSMKKYMEPATEQGLSNSKAAVGRVVDRAAGLGINVSLEVVNRYETNVLNTGRQALSYLSDVKRPNLGVHLDTYHMNIEESDMFSPVLDTAEALKYVHIGESHRGYLGTGSVDFDNFFKALGRIGYDGPVVFESFSSAVVAPDLSRMLGIWRNLWADNEELGAHANAFIRDKLTAIKTIELH = 1.07
Ketose 3-epimerase mutant 12: amino acid-substituted mutant of SEQ ID NO: 1 (protein, Arthrobacter histidinolovorans) MKIGCHGLVWTGRFDAEGIRYSVQKTKEAGFDLIEFPLMDPFSFDVATAKSALAEHGLTASASLGLSEATDVSSEDPAIVKAGEELLNRALDVLAELGATDFCGVIYSAMKKYMEPATEQGLSNSKAAIGRVVDRAAGLGINVSLEVVNRYETNVLNTGRQALSYLSDVKRPNLGVHLDTYHMNIEESDMFSPVLDTAEALKYVHIGESHRGYLGTGNVDFDNFFKALGRIGYDGPVVFESFSSAVVAPDLSRMLGIWRNLWADNEELGAHANAFIRDKLTAIKTIELH = 1.94

Q. Looking for the measured T70/T50 of Ketose 3-epimerase mutant 18: amino acid-substituted mutant of SEQ ID NO: 1 (protein, Arthrobacter histidinolovorans) MKIGCHGLVWTGRFDAEGIRYSVQKTKEAGFDLIEFPLMDPFSFDVATAKSALAEHGLTASASLGLSEATDVSSEDPAIVKAGEELLNRALDVLAELGATEFCGVIYSAMKKYMEPATEQGLSNSKAAVGRVVDRAAGLGINVSLEVVNRYETNVLNTGRQALSYLSDVKRPNLGVHLDTYHMNIEESDMFSPVLDTAEALKYVHIGESHRGYLGTGSVDFDNFFKALGRIGYDGPVVFESFSSAVVAPDLSRMLGIWRNLWADNEELGAHANAFIRDKLTAIKTIELH , can you help?
A. 1.85
